Data provenance: ChEMBL document CHEMBL1201862

# Tested on: RPMI-8226
# Protocol notes: NCI tumour cell line growth inhibition, 48 h
The source made the active and inactive calls. Rule as the data show it: active = GI50 up to about 1.1 µM and inactive = higher.
The categories you may choose from are class 1 = active, class 0 = inactive

[
  {
    "Compound": "COc1ccc2[nH]c3c(C)c4ccncc4c(C)c3c2c1",
    "Category": "class 1"
  },
  {
    "Compound": "C[N+]1([O-])C2CCC1CC(OC(=O)C(CO)c1ccccc1)C2 (stereo not drawn)",
    "Category": "class 0"
  },
  {
    "Compound": "CC(=O)OCCOCNC(=S)N/N=C(\\C)c1cccs1",
    "Category": "class 0"
  }
]

We next turn to a different compound, shown below.
Query: Dear colleague, could you share the recorded outcome for CCOC(=O)c1c[nH]c2cc3c(cc2c1=O)CCS3(=O)=O.CCOC(=O)c1c[nH]c2ccc3c(c2c1=O)S(=O)(=O)CC3 when you have a moment?
Result: class 0

* * *

# GI50 listing for each entry below
# Test system: HCT-116
# Protocol notes: NCI tumour cell line growth inhibition, 48 h
Calls of active or inactive are those of the source. Cut-off read from the data, not from the text of the source: active = GI50 up to about 1.1 µM and inactive = higher.

These recorded examples may help you get a feel for the data.
[
  {
    "Molecule": "CCOP(=O)(CN=C(c1ccccc1)c1ccccc1)OCC",
    "Value reported": "> 100 µM (inactive)"
  },
  {
    "Molecule": "Clc1ccc(SC(/C=C/NNC2=NN=C(c3ccccc3)C(c3ccccc3)N2)c2ccccc2)cc1 (configuration not stated)",
    "Value reported": "16.1 µM (inactive)"
  },
  {
    "Molecule": "OCC(O)C(O)C(O)C(O)c1nc2cc(Cl)ccc2[nH]1 (configuration not stated)",
    "Value reported": "> 100 µM (inactive)"
  },
  {
    "Molecule": "CC(=O)O[C@H]1C[C@@H](OC(C)=O)[C@@](C)(O)[C@@H]2[C@@H](OC(C)=O)[C@@]3(O)[C@H](/C=C(/CCl)[C@H]4O[C@H]4[C@@H](OC(C)=O)[C@@]12C)OC(=O)[C@@H]3C",
    "Value reported": "> 25 µM (inactive)"
  },
  {
    "Molecule": "CCn1c(SCC(=O)NNC(=S)Nc2ccc(F)cc2)nc2ccccc2c1=O",
    "Value reported": "> 100 µM (inactive)"
  },
  {
    "Molecule": "C[C@H]1[C@H](C)CC[C@]2(C(=O)OC3OC(CO)C(O)C(O)C3O)CC[C@]3(C)C(=CC[C@@H]4[C@@]5(C)C[C@H]6OC(=O)c7cc(O)c(O)c(O)c7-c7c(cc(O)c(O)c7O)C(=O)O[C@@H]6C(CO)(CO)[C@@H]5CC[C@]43C)[C@H]12 (some centres not stated)",
    "Value reported": "54.1 µM (inactive)"
  }
]

Moving on to another molecule below.
Query: Please give the measured GI50 for this molecule: Nc1ncnc2nc(N3CCN(CCO)CC3)[nH]c12
Result: > 100 µM (inactive)

* * *

# System: SK-MEL-5
# Protocol notes: NCI tumour cell line growth inhibition, 48 h
Active and inactive are the calls of the source. No stated cut-off is given here; in the data, active = GI50 up to about 1.1 µM and inactive = higher.
The categories you may choose from are active, inactive

Sample answers from the record:
[
  {
    "Compound": "OC1CCCCCCCCCCC1SCCCCl (stereo unspecified)",
    "Category": "inactive"
  },
  {
    "Compound": "C=C1C(=O)C([Si](C)(C)C)=C2C=C(C)C3(CC3)C12C (stereo unspecified)",
    "Category": "inactive"
  },
  {
    "Compound": "BrC1=CC=C2NCCCCCC/N=C3\\C=CC(Br)=CC=C3NCCCCCC/N=C\\2C=C1",
    "Category": "inactive"
  }
]

Query: Dear colleague, could you share the recorded outcome for COC(=O)/C=C(\C)C(=O)N(C)c1ccccc1I when you have a moment?
Result: inactive

Query: Dear colleague, could you share the recorded outcome for O=[N+]([O-])c1cccc2nccc(NCC(O)CO)c12 (stereo unspecified) when you have a moment?
Result: inactive

Query: Dear colleague, could you share the recorded outcome for CCN(CC(COc1ccc2c(c1)[n+]([O-])nc(N)[n+]2[O-])OC(C)=O)C(C)=O (stereo unspecified) when you have a moment?
Result: inactive

Query: Dear colleague, could you share the recorded outcome for O=C(Nc1ccccc1F)c1cc2ccc(O)cc2o/c1=N\c1ccccc1F when you have a moment?
Result: inactive

Query: Dear colleague, could you share the recorded outcome for CCC(C)c1cnc(CC(C)C)c(=O)[nH]1 (stereo unspecified) when you have a moment?
Result: inactive

Query: Dear colleague, could you share the recorded outcome for C[C@]12CC[C@@H]3c4ccc(OC(=O)c5ccccc5)cc4CC[C@H]3[C@@H]1CCC2OC(=O)c1cccc2c(=O)c3ccccc3[nH]c12 (stereo partly specified) when you have a moment?
Result: inactive

Query: Dear colleague, could you share the recorded outcome for COc1ccc2c(c1)C(=O)Cc1ccccc1CC2 when you have a moment?
Result: inactive

Query: Dear colleague, could you share the recorded outcome for COC(=O)C1(O)C(c2ccccc2)NC2(C)CCCC21 (stereo unspecified) when you have a moment?
Result: inactive

Query: Dear colleague, could you share the recorded outcome for COC(=O)/C=C1\C(CO[Si](C)(C)C(C)(C)C)OC(n2cc(C)c(=O)n(C)c2=O)C1O[Si](C)(C)C(C)(C)C (stereo unspecified) when you have a moment?
Result: inactive

Query: Dear colleague, could you share the recorded outcome for C/C(=N\Nc1nc2ccccc2s1)c1ccncn1 when you have a moment?
Result: active

Query: Dear colleague, could you share the recorded outcome for CCn1c(SCC(=O)NNC(=S)Nc2ccc(F)cc2)nc2ccccc2c1=O when you have a moment?
Result: inactive

Query: Dear colleague, could you share the recorded outcome for Nc1ccccc1S(=O)(=O)c1ccccc1 when you have a moment?
Result: inactive

Query: Dear colleague, could you share the recorded outcome for CC(=O)c1c(C(F)(F)F)[n+]([O-])c2cc(Cl)c(Cl)cc2[n+]1[O-] when you have a moment?
Result: active

Query: Dear colleague, could you share the recorded outcome for CC(C)(C)C1CC[C@H](O)[C@H]([C@@H](O)CC2CC(=O)N(c3ccccc3)C(=O)C2)C1 (stereo partly specified) when you have a moment?
Result: inactive

Query: Dear colleague, could you share the recorded outcome for CC(C)CNc1nc(N)nc(O)c1NC=O when you have a moment?
Result: inactive

Query: Dear colleague, could you share the recorded outcome for C=C(/C=C/C=C(\CO)CCC=C(C)C)[C@H]1CCC2([C@H](CCCO)/C(=C(/C)C=O)CC[C@]2(C)O)[C@H]1O (stereo partly specified) when you have a moment?
Result: inactive

Query: Dear colleague, could you share the recorded outcome for CC(=O)OC(/C=C/c1ccccc1)=C(OC(C)C)/C1=C(\c2ccccc2)SCCCSC1=O when you have a moment?
Result: inactive

Query: Dear colleague, could you share the recorded outcome for CC1=NN(C(=O)c2ccccc2O)C(=O)/C1=C/c1c(O)ccc2ccccc12 when you have a moment?
Result: inactive
